Each record here notes measured TGI.
System: SK-OV-3 ovarian
Test: NCI tumour cell line growth inhibition, 48 h

Consider the following illustrative entries.
                                   molecule  test_readout  reported_value
0  COC(Cc1ccccc1)NC(C)=O (stereo not drawn)           TGI        > 100 µM
1                                CCNCCCCNCC           TGI       > 3750 µM

Turning now to a further molecule:
Quick note, TGI for CC(=O)OCc1cn(S(=O)(=O)c2ccc(C)cc2)cn1 landed at > 100 µM

###

Test system: SF-295 CNS
Assay: NCI tumour cell line growth inhibition, 48 h; in the data active means GI50 below about 0.43 µM; inactive means the rest
Please reply with one of these outcomes: active, inactive

Reference set (3 entries):
>>> print(df.to_string())
                                   compound  class_assignment
0          O=C(Nc1ccc(Br)cc1F)c1cc(Br)ccc1O          inactive
1  NC[C@@](O)(c1ccc(Cl)cc1)c1ccc(-c2cn[nH]c2)cc1          inactive
2  Cc1nn(-c2ccc(Br)cc2)c(C)c1CC(=O)c1cc(O)ccc1O          inactive

Called result for CC(C)[C@@H]1CC[C@@H]2[C@@H]1[C@H](OC(=O)/C=C/c1ccccc1)[C@]1(C(C)C)C[C@@H](OC(=O)CO)[C@@]2(C)O1
inactive

Called result for CN1CCCN(C(c2ccccc2)c2ccc(Br)cc2)CC1 (stereo not drawn)
inactive

Called result for CCCN1CCN(c2ccc3nc(-c4ccc5nc(-c6ccc(OCC)c(OCC)c6)[nH]c5c4)[nH]c3c2)CC1
active

Called result for O=C1c2cccnc2C(=O)c2c1c(C(=O)OCCN1CCOCC1)c1ccccn21
active

Called result for COc1ccc(Nc2ncccc2C(=O)NCc2cn(Cc3cccc(Oc4ccccc4)c3)nn2)cc1
inactive

###

Each record here notes measured TGI.
System: MDA-N
Assay: NCI tumour cell line growth inhibition, 48 h

Consider the following illustrative entries.
>>> df
                                   compound  reported_value
0  C[C@@H]1OC(=O)/C(=C\N(C)C)[C@H]2CC(=O)N(CCc3cn(S(=O)(=O)C(F)(F)F)c4ccccc34)C[C@H]12        > 100 µM
1  CC(=O)O[C@H]1[C@@H](N2CCN(C)CC2)C[C@H]2[C@@H]3CC=C4C[C@@H](N5CCCC5)CC[C@]4(C)[C@H]3CC[C@@]21C        > 100 µM
2        Cc1nc(C)c(N2CCN(C#N)CC2)c(=O)[nH]1        > 100 µM
3  COC1(C)C=NCC(C)(C)NC(=O)C(C)(OC)C=NCC(C)(C)NC1=O (stereo not given)         > 10 µM

Turning now to a further compound:
Quick note, TGI for O=C(O)C(F)(OC(F)(F)C(F)(OC(F)(F)C(F)(F)C(F)(F)F)C(F)(F)F)C(F)(F)F (stereo not given) landed at > 100 µM

###

Each record here notes measured TGI.
System: M14 melanoma
Experiment: NCI tumour cell line growth inhibition, 48 h

>>> print(df.to_string())
                                   molecule  reported_value
0                  CCn1cnc2c(NC(C)=O)ncnc21        > 100 µM
1  CC1(C)O[C@@H]2[C@@H]3OC(=O)C[C@@H]3[C@@H](COCc3ccccc3)[C@@H]2O1        > 100 µM
2  CN(C)/C=N/c1nc2ncn(CCOC(=O)c3ccccc3)c2c(=O)[nH]1        > 100 µM
3  CCC/C(=N\NC(=O)c1cc2ccccc2cc1O)C(CC)C(=O)CCC(=O)N(Cc1ccccc1)Cc1ccccc1 (stereo unspecified)        > 100 µM
4  CC(NC(=O)C(N)CC(=O)O)NC(=O)N1CCCC1 (stereo unspecified)        > 100 µM

Quick note, TGI for COc1cc2c3c(c4c5ccccc5[nH]c4c2c(OC)c1OC)C(=O)N(CCN1CCCCC1)C3=O landed at 4.25 µM

###

Test system: HOP-62 NSCLC
Assay: NCI tumour cell line growth inhibition, 48 h
Test Readout: TGI

Consider the following illustrative entries.
Compound	Tgt	Reported Value
CC(=O)OC1COC(Nn2c(=O)[nH]c3ccccc3c2=O)C(OC(C)=O)C1OC(C)=O (stereo unspecified)	HOP-62 NSCLC	> 100 µM
CC1(C)O[C@@H]2[C@@H]3OC(=O)C[C@@H]3[C@@H](COCc3ccccc3)[C@@H]2O1	HOP-62 NSCLC	> 100 µM
CNC1C(OC2C(OC3C(O)C(O)C(O)C(O)C3O)OC(C)C2(O)CO)OC(CO)C(O)C1O (stereo unspecified) (tested in a mixture with another compound)	HOP-62 NSCLC	> 100 µM
COc1cccc(-n2c(N)c(-c3nc4cc(C(F)(F)F)ccc4s3)c3ccc([N+](=O)[O-])cc3c2=O)c1	HOP-62 NSCLC	> 100 µM
O=C([O-])c1ccccc1Nc1ccccc1[O-].[Ni+3].[OH3+].[OH3+].[OH3+]	HOP-62 NSCLC	> 100 µM
Cn1c(=S)sc2nc3ccccc3n2c1=S	HOP-62 NSCLC	35.2 µM
CC(=O)OCC1OC(Sc2ccccn2)C=CC1OC(C)=O (stereo unspecified)	HOP-62 NSCLC	> 100 µM
COc1cc([C@@H]2c3cc4c(c(O)c3C[C@H]3COC(=O)[C@@H]32)OCO4)cc(OC)c1O	HOP-62 NSCLC	> 200 µM

Quick note, TGI for CN1OC2OC(=O)OC2[C@H]1[C@H]1O[C@H](c2ccccc2)OC1(C)c1cc(OC(=O)c2ccccc2)ccc1OC(=O)c1ccccc1 (stereo partly specified) landed at > 50 µM

###

Each record here notes measured TGI.
System: MALME-3M melanoma
Test: NCI tumour cell line growth inhibition, 48 h

The value of TGI recorded for CC(C)=CCC[C@H](C)[C@H]1CC[C@@H](C)c2cc(O)c(C)cc21 when tested on MALME-3M melanoma reads 33.4 µM

The value of TGI recorded for COc1ccc(C#CCC(OC2OC(CO)C(O)C(O)C2O)C(O)c2ccc(OC)c(OC)c2)cc1OC (stereo not drawn) when tested on MALME-3M melanoma reads > 100 µM

The value of TGI recorded for CCCCCCCCCC(CCCC(O)CC(=O)O)OC1OC(COC2OC(C)C(O)C(O)C2O)C(O)C(O)C1OC1OC(CO)C(O)C(O)C1OC1OC(C)C(O)C(O)C1O (stereo not drawn) when tested on MALME-3M melanoma reads > 40 µM

###

Test system: CAKI-1 renal
Experiment: NCI tumour cell line growth inhibition, 48 h
Each record here notes measured TGI.

Consider the following illustrative entries.
Compound	TGI
N=c1ccn2c(n1)O[C@@H]1[C@@H](O)[C@H](CO)O[C@@H]12	> 100 µM
[N-]=[N+]=NC1=C(c2ccccc2)C(=O)c2cccc3cccc1c23	> 100 µM
CN(C)/C(N)=N/C(N)=S	> 100 µM

Quick note, TGI for CC1(C)CC[C@]2(C(=O)O)CC[C@]3(C)C(=CC[C@@H]4[C@@]5(C)CC[C@H](OC6OC(CO)C(O)C(O)C6OC6OC(CO)C(O)C(O)C6O)C(C)(C)[C@@H]5CC[C@]43C)[C@@H]2C1 (stereo partly drawn) landed at 35.4 µM

Quick note, TGI for CC[C@@]1(O)C(=O)OCc2c1cc1n(c2=O)Cc2c-1nc1ccccc1c2/C=N/OC(C)(C)C landed at 0.149 µM

###

Tested on: HL-60(TB) leukemia
Test: NCI tumour cell line growth inhibition, 48 h
Each record here notes measured TGI.

Consider the following illustrative entries.
                                   compound  reported_value
0  COc1cc(C2C(C#N)=C(N)Oc3cc(O)ccc32)cc(OC)c1OC (stereo not drawn)        > 100 µM
1  CC([O-])C(=O)[O-].NCC1CCC1CN.[Pt+4] (stereo not drawn)         > 10 µM

Turning now to a further compound:
Quick note, TGI for COC(=O)NN1C(=O)C(=P(c2ccccc2)(c2ccccc2)c2ccccc2)C(C(=O)OC)=C1C landed at > 100 µM

###

System: DU-145 prostate
Assay: NCI tumour cell line growth inhibition, 48 h; in the data active means GI50 below about 0.43 µM; inactive means the rest
Please reply with one of these outcomes: true = active, false = inactive

Reference set (5 entries):
Compound	Class Assignment
CC([O-])C(=O)[O-].NCC1CCC1CN.[Pt+4] (centres undefined)	false
C[n+]1ccc(-c2c3nc(c(-c4ccc5c(ccc[n+]5C)c4)c4ccc([nH]4)c(-c4cc[n+](C)cc4)c4nc(c(-c5ccc6c(ccc[n+]6C)c5)c5ccc2[nH]5)C=C4)C=C3)cc1	false
C=C(CN1CCN(c2cccc(F)c2)CC1)c1ccc(C(=O)Nc2ccccc2N)cc1	false
COc1ccc(Cn2c(Br)c3c(c2-c2cc(OC)c(OC)c(OC)c2)CCc2sc(NC(C)=O)nc2-3)cc1	false
COc1ccc(/C=C/C(=O)c2ccc(Nc3ccnc4cc(Cl)ccc34)cc2)cc1	false

Called result for COC(=O)c1ccc(C2SCC(=O)N2NC(=O)C(O)c2ccccc2)cc1 (centres undefined)
false

Called result for O=C(/C=C/c1cccnc1)c1ccccc1O
false

Called result for S=C(N/N=C(/c1ccccc1)c1ccccn1)Nc1cccc(Cl)c1
false

Called result for CCCN1CCN(c2ccc3nc(-c4ccc5nc(-c6ccc(OCC)c(OCC)c6)[nH]c5c4)[nH]c3c2)CC1
false

Called result for C=C1N(C)c2ccc(Cl)cc2C1(C)C
false

Called result for CC[C@@]1(O)C(=O)OCc2c1cc1n(c2=O)Cc2c-1nc1ccccc1c2/C=N/OC(C)(C)C
true

Called result for O=CC1(C2(C=O)c3ccccc3-c3ccccc32)c2ccccc2-c2ccccc21
false

Called result for CC(=O)Nc1sc2c(c1-c1nc3ccccc3s1)CNC2
false

Called result for CC/C=C\C/C=C\C[C@H]1C/C=C2/C(=O)C=C[C@H]2C/C=C\CCC(=O)O1
false
